Origin of values: the supplement of paper PMC9170038

Tested on: MS2 coat protein
Test: apparent KD of MS2 coat protein; designed switch direction (-1 OFF switch, 1 ON switch): 1; higher = weaker reporter binding
Conditions: input ligand: FMN 200 uM
If the reported apparent KD of MS2 coat protein equals or exceeds 70 nM, assign criterion met. If not, assign criterion not met.

Some solved cases for reference:
Is it the case that AAACAUGAGCGAGGAUAUGCAGAGGAUCACCCUGUAGAAGGCGCAUGUAAAACAACAUGAGGAUCACCCAUGUCAUGUACAUGA (Eterna round: R96, puzzle: Same State NG 1) has apparent KD of MS2 coat protein reaching or exceeding 70 nM?
criterion not met

Is it the case that GCGAGCGUACUUGCAGACAUGAGGAUCACCCAUGUAACUGGACAGGAUAUGGUACCGUUUCGGUACCAGAAGGGUUUACUCAUG [JL SSNG3 3.57] (Eterna round: R96, puzzle: Same State NG 3) has apparent KD of MS2 coat protein reaching or exceeding 70 nM?
criterion not met

Is it the case that GGAGCCGGCACUGAGGAUAUUCAUAUUAAAACAUGAGGAUCACCCAUGUAGGCCAGAAGGCCUUGGGAGAAGGCAGGUCGGCUCG [salish99_ss2_r3_075] (Eterna round: R96, puzzle: Same State 2) has apparent KD of MS2 coat protein reaching or exceeding 70 nM?
criterion not met

Is it the case that UUAAUGAAGUAAGGAUAUACAUGAGGAUCACUCGUAGAAGGUACUAUACAUGAGGAUCACCCAUGUUCCGGUCCGUAGACUGGA [JL SSNG1 1.02] (Eterna round: R96, puzzle: Same State NG 1) has apparent KD of MS2 coat protein reaching or exceeding 70 nM?
criterion met

Is it the case that UGACAAGUGGUAGGAUAUCCAUGACAUGAGGAUCACCCAUGUUCUUUUGGUGUCCGUCACGGACGGGAGAAGGACCAACAUGAG [Same State NG2 S3] (Eterna round: R96, puzzle: Same State NG 2) has apparent KD of MS2 coat protein reaching or exceeding 70 nM?
criterion not met

Is it the case that GGUAGGUUACUACCAGACAUGAGGAUCACCCAUGUAAAUGGGAAGGAUAUGGUACCGUUUCGGUACCAGAAGGUCCUAAGUGAG [JL SSNG3 1.48] (Eterna round: R96, puzzle: Same State NG 3) has apparent KD of MS2 coat protein reaching or exceeding 70 nM?
criterion met

Is it the case that CCAAUGUACAAUUUAGAUCUACAUGAGGAUCACCCAUGUACAGAGGAUAUCAGCUCGUUUAGAGCUGAGAAGGCUGAAUUAAUU [SSNG3/3-A3] (Eterna round: R96, puzzle: Same State NG 3) has apparent KD of MS2 coat protein reaching or exceeding 70 nM?
criterion met

Is it the case that UUAAUUUACUGAGGAUAUCGUGUCGACUGAGGUGACAUGAGGAUCACCCAUGUGAGAAGUGGUAUCGAGAAGGCAGUAUUCAUA [JR_SSNG2_Sub022] (Eterna round: R96, puzzle: Same State NG 2) has apparent KD of MS2 coat protein reaching or exceeding 70 nM?
criterion met

In the following, a different sequence is considered.
Is it the case that AGAUAUCCACGACAUGAGGAUCACCCAUGUUGCUACGACAUGGAGGAUAUUCACGAUACACCUGUGAAGAAGGCUAAGGAUAUU [Eternabot solution 16] (Eterna round: R96, puzzle: Same State NG 3) has apparent KD of MS2 coat protein reaching or exceeding 70 nM?
criterion met

---

System: MS2 coat protein
Experiment: apparent KD of MS2 coat protein; designed switch direction (-1 OFF switch, 1 ON switch): 1; higher = weaker reporter binding
Settings: input ligand: microRNA oligo, concentration not stated
metric: apparent KD of MS2 coat protein (nM)
Field format: number, assumed nM, no unit text.

Entry under test: GGAUCGGAGGCAGGAUAUGGGCUCAGAACAUGAGGAUCACCCAUGUAAAACGGCGCAAUGCGCCACCAGAAGGGCCUCCAGUCG [Esussoed] (Eterna round: R96, puzzle: Same State NG 2) . Its apparent KD of MS2 coat protein was 25.7

Entry under test: AAUCGUUUGAUAGGAUAUCGCUAUACAUGAGGAUCACCCAUGUUUACCACGCUGGUUUUUCGUACUGAGAAGGAUUCUGAUGAU [JL JR sub007 mod 7] (Eterna round: R96, puzzle: Same State NG 2) . Its apparent KD of MS2 coat protein was 30.4

Entry under test: AGCGAACAGGCUAACAUGAGGAUCACCCAUGUGGACUCAUGUUAGGAUAUCGGGAAGGAGGAAACCGAGAAGGGACGGUGAGCC [AK SSNG3-V2-46] (Eterna round: R96, puzzle: Same State NG 3) . Its apparent KD of MS2 coat protein was 14.6

---

Test system: MS2 coat protein
Experiment: apparent KD of MS2 coat protein; designed switch direction (-1 OFF switch, 1 ON switch): -1; higher = weaker reporter binding
Conditions: Eterna round: R95; input ligand: microRNA oligo, concentration not stated
metric: apparent KD of MS2 coat protein (µM)
Field format: number, assumed µM, no unit text.

The cases that follow already have their apparent KD of MS2 coat protein on record.
Entry under test: CAUAAUUUUCGGAAUAUGUACAUGAGGAUCACCCAUGUGACGAGUUACAUGAUUAACAAGCUUUUUGCUCGUCUUAU [Sensor v3 - Turn-off variant 1 - 12] (puzzle: Sensor v3, turn-off variant 1) . Its apparent KD of MS2 coat protein was 0.0319

Entry under test: UCGAGGUCAGGAUAUACAUGAGGAUCACCCAUGUUGAGAUAAGGUAGGAAAAGAGUAGGUAGAAGGGACGAGAG [JR_Exclu3_Sub047] (puzzle: Exclusion 3) . Its apparent KD of MS2 coat protein was 0.0273

Entry under test: CUGAGCAGACGGAGAUCCAACAUGAGGAUCACCCAUGUCUCAUAAGCUUUUUGCUUGUCUUAUCCUCCUCUGUUCUC [Mariedxeor] (puzzle: Sensor v3, turn-off variant 1) . Its apparent KD of MS2 coat protein was 0.315

New cases:
Entry under test: UAUUAGAGAGGAUAUAUGAUGUGAAACAUGAGGAUCACCCAUGUAAUAUUAUGGAUGUAAAUAGAAGGCUCAUUUA [Mat - Exclusion 5 - JL mod - D15] (puzzle: Exclusion 5) . Its apparent KD of MS2 coat protein was 0.0775

Entry under test: CAUACACAUGAGGAUCACCCAUGUGAGGAUAUGCGUACGUUGUCCGUAGGCGACGUGCGCAGAAGGCGCGAGGU [JL-ex1-3.16 Eli mod] (puzzle: Exclusion 1) . Its apparent KD of MS2 coat protein was 0.0284

---

Entries and their measured apparent KD of MS2 coat protein follow.
System: MS2 coat protein
Assay: apparent KD of MS2 coat protein; designed switch direction (-1 OFF switch, 1 ON switch): 1; higher = weaker reporter binding
Details: input ligand: none
Field format: number, assumed nM, no unit text.

Entry under test: GUGAAGAAUUAAGGAUAUCGAGUCAAGAUGUUAAACAUGAGGAUCACCCAUGUGGGUUGCGGUAUCGAGAAGGUAAAUUACGGG [salish99_SSNG2_r04_503] (Eterna round: R96, puzzle: Same State NG 2) . Its apparent KD of MS2 coat protein was 33.2

For the next question, use this sequence.
Entry under test: UGGCUGGUGCUAGGAUAUGCAUGAGGCCUCCUCGUAGAAGGAGCACGACAUGAGGAUCACCCAUGUGGCCGUCCGUAGACGGCU [salish99_SSNG1_r04_013] (Eterna round: R96, puzzle: Same State NG 1) . Its apparent KD of MS2 coat protein was 61.2

---

System: MS2 coat protein
Test: apparent KD of MS2 coat protein; higher = weaker reporter binding
Settings: Eterna round: R107; input ligand: arginine 13.2 mM
Heads up, the class ranges for apparent KD of MS2 coat protein are lowest = under 20 nM, middle = from 20 nM up to 40 nM, highest = 40 nM and over

Some solved cases for reference:
Returns: class label. Input: UCAUACAUGAGGAUCACCCAUGUUCGUGGGCGAGGACCGGUACGGCCGCCACUCGUACUAACGGUUUCUUAAACUUCCUUUCGAG [theeternabot_sameState_MS2_Trp_A_49]
middle

Returns: class label. Input: UCAUUGAGAGUCAUCCAGCGUUAAUGGGAUACCAGAGUUCUUUUACUCCCUUGGCAGCCCGGAACAUGAGGAUCACCCAUGUCUG [theeternabot_exclusion_MS2_Theo_A_39]
lowest

Returns: class label. Input: CAAUAAGUACCGGUCCUCAGAUCCUCAUGACGAGGACCGGUACGGCCGCCACUCGAAACAUGAGGAUCACCCAUGUAAUAAUAAC [Brourdmod02]
middle

New cases:
Returns: class label. Input: GUGUGCGGCACGGCCGCCACUGCGGUGGUGUGACAUGAGGAUCACCCAUGUUGUCAUGCGGCCCUUAGGACCGGGUGGCGUGCAC [#1 Exclusion - Tryptophan B Attempt #17 (HarryS)]
middle

Returns: class label. Input: CCUAUCCAGUCGGCCGCCACUGAAAACAGUGGGUGAACAUGAGGAUCACCCAUGUCGGAAUACCGCAGGACCGGGACUGUAUAGG [Ex Tryptophan B 23]
highest

Returns: class label. Input: UUGCUCUCUUCGGCCGCCACUACACGCGAGUUGACGACUGGCGGACAUGAGGAUCACCCAUGUCAUAGGACCGGGAAUCACGCUG [theeternabot_sameState_MS2_Trp_B_11]
lowest

Returns: class label. Input: UAACAUGAGGAUCACCCAUGUUUGAAGGAACGAGGACCGGUACGGCCGCCACUCGACGAGUGGAUGAGAAGUGGGCUUGUGUGCU [Same State Trp A GF9]
lowest

Returns: class label. Input: AGCGAUAUGCAUGAUACCAGCUACAUGAGGAUCACCCAUGUGCGUCAGAAAUGACUGUGUAGCCCUUGGCAGCAUAGAGCAUGUA [Exclusion - Theophylline B (Freestyle 11)]
middle

Returns: class label. Input: CCUAUGCAGUCGGCCGCCACUGAUAAAGUUAUCUUUACCUCAGAAACAUGAGGAUCACCCAUGUACAGGACCGGGACUGUAUAGG [Ex Tryptophan B 18]
lowest
